Assay: qHTS assay to identify small molecule antagonists of the estrogen related receptor signaling pathway with the pleiotropic PPARgamma coactivator (PGC) from Tox21 10K library - cell viability counter screen (AID 1224840); further: nearly all actives have a fitted effect of over 40% in size
Conditions: PGC/ERR reporter cells viability, CellTiter-Fluor, 17.5 h; series mostly up to 92.4 µM
Inconclusive results are not listed. The source made the active and inactive calls. The call rests on the fitted dose curve; in most records, active means well fitted cell-killing curve with a large enough effect in the repeat runs (not every such curve was filed as active); inconclusive means weak or mixed curves, or effect the other way; inactive means no such curve, though single readings can be large or run the other way.
// allowed return values: y for active, n for inactive

# example entries with known answers
- COMPOUND: "O=[N+]([O-])C(Br)Br"
  DISCRETE_LABEL: "n"
- COMPOUND: "CCOP(=O)(Sc1ccccc1)Sc1ccccc1"
  DISCRETE_LABEL: "n"
- COMPOUND: "CC(Cc1ccccc1)N(C)Cc1ccco1 (configuration not stated)"
  DISCRETE_LABEL: "n"
- COMPOUND: "C=CC(=O)[O][Sn]([CH2]CCC)([CH2]CCC)[CH2]CCC"
  DISCRETE_LABEL: "y"
- COMPOUND: "O=S1(=O)OCC2C(CO1)C1(Cl)C(Cl)=C(Cl)C2(Cl)C1(Cl)Cl (configuration not stated)"
  DISCRETE_LABEL: "n"

Moving on to another compound below.
Data request: Would you mind telling me which call this test gave CSC(=O)c1c(C(F)F)nc(C(F)(F)F)c(C(=O)SC)c1CC(C)C ?
Data returned: n

====

Biological target: Thyrotropin receptor (Homo sapiens)
Assay: qHTS assay to identify small molecule antagonists of the thyroid stimulating hormone receptor (TSHR) signaling pathway (AID 1259385); further: nearly all actives have a fitted effect of over 20% in size
Conditions: TSHR-HEK293 cAMP HTRF, TSH-stimulated antagonist mode; series mostly up to 92.4 µM
Results filed as inconclusive are left out. Activity calls are given as the source filed them. The call rests on the fitted dose curve.
// allowed return values: active, inactive

# example entries with known answers
- MOLECULE: "COP(=S)(OC)Oc1nc(Cl)c(Cl)cc1Cl"
  DISCRETE_LABEL: "inactive"
- MOLECULE: "CC1CN1 (stereo unspecified)"
  DISCRETE_LABEL: "inactive"
- MOLECULE: "CCCCC(CC)COC(=O)c1ccccc1C(=O)OCC(CC)CCCC (stereo unspecified)"
  DISCRETE_LABEL: "inactive"
- MOLECULE: "CCC(C)Br (stereo unspecified)"
  DISCRETE_LABEL: "inactive"
- MOLECULE: "CCCN"
  DISCRETE_LABEL: "inactive"
- MOLECULE: "O=[N+]([O-])c1ccc(CCl)cc1"
  DISCRETE_LABEL: "inactive"

Data request: Would you mind telling me which call this test gave C#CCC1=C(C)C(OC(=O)C2C(C=C(C)C)C2(C)C)CC1=O (stereo unspecified) ?
Data returned: inactive

Data request: Would you mind telling me which call this test gave O=[N+]([O-])c1cc(C(F)(F)F)c(Cl)c([N+](=O)[O-])c1Nc1ncc(C(F)(F)F)cc1Cl ?
Data returned: active

====

Test: A CellTox Green Cytotoxicity Assay to monitor cytotoxicity in HEK293 cells - 8 hour (AID 1224884); further: nearly all actives have a fitted effect of over 35% in size
Settings: CellTox Green fluorescence; series mostly up to 76.8 µM
Records with an inconclusive call do not appear. Activity calls are given as the source filed them. Calls come from the whole dose curve; as a rule, active = well fitted activation curve with a large enough effect in the repeat runs; inconclusive = weak or mixed curves; inactive = flat fitted curve, though single readings scatter.
// allowed return values: active, inactive

- MOLECULE: "CC1CN1 (stereo not given)"
  DISCRETE_LABEL: "inactive"
- MOLECULE: "CNC(=O)CSP(=O)(OC)OC"
  DISCRETE_LABEL: "inactive"
- MOLECULE: "FC(F)C(F)(F)OCC(Cn1cncn1)c1ccc(Cl)cc1Cl (stereo not given)"
  DISCRETE_LABEL: "inactive"
- MOLECULE: "COc1nc(C)nc(NC(=O)NS(=O)(=O)c2ccccc2Cl)n1"
  DISCRETE_LABEL: "inactive"
- MOLECULE: "Clc1ccc(C(Cl)(Cl)Cl)cc1Cl"
  DISCRETE_LABEL: "active"
- MOLECULE: "ClCBr"
  DISCRETE_LABEL: "inactive"
- MOLECULE: "CCOP(=S)(OCC)Oc1cc(C)nc(N(CC)CC)n1"
  DISCRETE_LABEL: "inactive"
- MOLECULE: "O=S1(=O)OCC2C(CO1)C1(Cl)C(Cl)=C(Cl)C2(Cl)C1(Cl)Cl (stereo not given)"
  DISCRETE_LABEL: "inactive"
- MOLECULE: "C[C@]12C/C(=C/O)C(=O)C[C@@H]1CC[C@@H]1[C@@H]2CC[C@@]2(C)[C@H]1CC[C@]2(C)O"
  DISCRETE_LABEL: "inactive"
- MOLECULE: "Cc1ccn2nc(S(=O)(=O)Nc3c(F)cccc3F)nc2n1"
  DISCRETE_LABEL: "inactive"

Data request: Would you mind telling me which call this test gave CN1C(=O)[C@@H](NC(=O)c2cc3ccccc3[nH]2)N=C(c2ccccc2)c2ccccc21 ?
Data returned: inactive

Data request: Would you mind telling me which call this test gave [O]=[Cr][O][Cr]=[O] ?
Data returned: inactive

Data request: Would you mind telling me which call this test gave O=C(N[C@H]1N=C(c2ccccc2F)c2cccc3c2N(CC3)C1=O)c1cc2ccccc2[nH]1 ?
Data returned: inactive

Data request: Would you mind telling me which call this test gave CN=C=O ?
Data returned: inactive

Data request: Would you mind telling me which call this test gave CNC(C)(C)Cc1ccccc1 ?
Data returned: inactive

Data request: Would you mind telling me which call this test gave COP(=S)(OC)Oc1ccc([N+](=O)[O-])c(C)c1 ?
Data returned: inactive

Data request: Would you mind telling me which call this test gave CC(=O)[O][Sn]([c]1ccccc1)([c]1ccccc1)[c]1ccccc1 ?
Data returned: active

Data request: Would you mind telling me which call this test gave CCO/N=C(\CC)C1=C(O)CC(c2c(C)cc(C)cc2C)CC1=O (stereo not given) ?
Data returned: inactive

Data request: Would you mind telling me which call this test gave N#CC(C#N)=NNc1cccc(Cl)c1 ?
Data returned: inactive

Data request: Would you mind telling me which call this test gave Cc1c([N+](=O)[O-])c(C)c([N+](=O)[O-])c(C(C)(C)C)c1[N+](=O)[O-] ?
Data returned: inactive

====

Assay: qHTS RealTime-Glo MT Cell Viability Assay in HEK293 cells - 24 hour (AID 1224886); further: nearly all actives have a fitted effect of over 50% in size
Conditions: RealTime-Glo luminescence; series mostly up to 76.8 µM
Records with an inconclusive call do not appear. Calls of active or inactive are those of the source. Calls follow the shape of the dose curve; as a rule, active = well fitted cell-killing curve with a large enough effect in the repeat runs; inconclusive = weak or mixed curves, or effect the other way; inactive = flat fitted curve, though single readings scatter.
// allowed return values: active, inactive

- MOLECULE: "CCOP(=O)(OCC)Oc1nc(Cl)c(Cl)cc1Cl"
  DISCRETE_LABEL: "inactive"
- MOLECULE: "OCC(Br)CBr (stereo unspecified)"
  DISCRETE_LABEL: "inactive"
- MOLECULE: "COP(=S)(OC)Oc1ccc([N+](=O)[O-])c(C)c1"
  DISCRETE_LABEL: "inactive"
- MOLECULE: "CN1C2CCC(C)(C)C1CC(OC(=O)C(O)(c1cccs1)c1cccs1)C2 (stereo unspecified)"
  DISCRETE_LABEL: "inactive"
- MOLECULE: "CC(=O)[O][Sn]([c]1ccccc1)([c]1ccccc1)[c]1ccccc1"
  DISCRETE_LABEL: "active"
- MOLECULE: "c1ccc(Nc2ccc(Nc3ccccc3)cc2)cc1"
  DISCRETE_LABEL: "active"
- MOLECULE: "CCC[CH2][Sn]([CH2]CCC)([O]C(C)=O)[O]C(C)=O"
  DISCRETE_LABEL: "active"
- MOLECULE: "CN/C(=N\\[N+](=O)[O-])NCc1cnc(Cl)s1"
  DISCRETE_LABEL: "inactive"

Data request: Would you mind telling me which call this test gave O=C(N[C@H]1N=C(c2ccccc2F)c2cccc3c2N(CC3)C1=O)c1cc2ccccc2[nH]1 ?
Data returned: inactive

====

Assay: qHTS assay to identify small molecule antagonists of the TGF-beta/Smad signaling pathway - cell viability counter screen (AID 1346824); further: nearly all actives have a fitted effect of over 50% in size
Settings: SBE-bla HEK293T viability, CellTiter-Glo luminescence; series mostly up to 76.8 µM
Records with an inconclusive call do not appear. Activity calls are given as the source filed them. Calls follow the shape of the dose curve; as a rule, active = well fitted cell-killing curve with a large enough effect in the repeat runs; inconclusive = weak or mixed curves; inactive = flat fitted curve, though single readings scatter.
// allowed return values: TRUE (active), FALSE (inactive)

# example entries with known answers
- COMPOUND: "N#Cc1c2ccccc2cc2ccccc12"
  DISCRETE_LABEL: "FALSE"
- COMPOUND: "CC(C)c1c(CN(C)C(C)Cc2ccccc2)n(C)n(-c2ccccc2)c1=O (stereo not drawn)"
  DISCRETE_LABEL: "FALSE"
- COMPOUND: "CC(=O)C(Cl)C(=O)N(C)C (stereo not drawn)"
  DISCRETE_LABEL: "FALSE"
- COMPOUND: "ClC1=C(Cl)[C@]2(Cl)[C@@H]3[C@H]4C[C@H]([C@@H]5O[C@H]45)[C@@H]3[C@@]1(Cl)C2(Cl)Cl"
  DISCRETE_LABEL: "FALSE"
- COMPOUND: "CN=C=O"
  DISCRETE_LABEL: "FALSE"

Data request: Would you mind telling me which call this test gave CCCCCCCc1ccc(O)cc1 ?
Data returned: FALSE

Data request: Would you mind telling me which call this test gave CCOP(=S)(OCC)SC(CCl)N1C(=O)c2ccccc2C1=O (stereo not drawn) ?
Data returned: FALSE

Data request: Would you mind telling me which call this test gave CC(C)=CC1C(C(=O)OC(C#N)c2cccc(Oc3ccccc3)c2)C1(C)C (stereo not drawn) ?
Data returned: FALSE

Data request: Would you mind telling me which call this test gave COc1ccc2c3c1O[C@H]1[C@H](O)CC[C@H]4[C@@H](C2)N(C)CC[C@@]341 ?
Data returned: FALSE
